Biological target: human CD33 F90A (human, UniProt P20138 18-364)
Sequence (P20138 18-364 F90A limits assumed): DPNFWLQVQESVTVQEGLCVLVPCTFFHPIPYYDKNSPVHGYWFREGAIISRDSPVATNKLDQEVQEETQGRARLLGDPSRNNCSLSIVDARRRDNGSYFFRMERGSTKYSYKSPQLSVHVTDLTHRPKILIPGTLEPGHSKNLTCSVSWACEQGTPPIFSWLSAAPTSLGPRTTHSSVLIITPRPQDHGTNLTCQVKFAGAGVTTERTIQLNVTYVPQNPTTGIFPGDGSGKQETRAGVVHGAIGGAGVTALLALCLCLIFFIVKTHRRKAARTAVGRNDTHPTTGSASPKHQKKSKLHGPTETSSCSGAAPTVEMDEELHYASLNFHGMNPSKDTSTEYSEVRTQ
Test: alanine scan, flow cytometry;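 also: HEK293-T cells transiently expressing single-residue alanine mutants of CD33 (alanine swapped to serine), antibody binding read by fluorescence in duplicate, background-subtracted, expressed relative to wild-type CD33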
value.type: Mean % WT Binding (% WT)
Numbers only, in % WT.

INSERT INTO assay_data (binder, assay_result) VALUES
  ('Refmab #4 (antibody, V domains shown, Full-length format is human IgG1 Fc silent (PG-LALA); The alanine scan used IgG or Fab) VH: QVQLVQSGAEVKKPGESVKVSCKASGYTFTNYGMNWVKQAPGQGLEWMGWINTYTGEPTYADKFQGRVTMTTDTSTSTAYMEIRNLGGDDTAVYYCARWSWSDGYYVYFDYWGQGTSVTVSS VL: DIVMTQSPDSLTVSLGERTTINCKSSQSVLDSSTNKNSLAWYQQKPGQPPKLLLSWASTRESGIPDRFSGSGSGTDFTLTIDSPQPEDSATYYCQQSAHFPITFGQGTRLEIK', 82.3),
  ('Refmab #1 (antibody, V domains shown, Full-length format is human IgG1 (Absolute Antibody Ab00283-10.0); The alanine scan used IgG or Fab; also called hP67.6) VH: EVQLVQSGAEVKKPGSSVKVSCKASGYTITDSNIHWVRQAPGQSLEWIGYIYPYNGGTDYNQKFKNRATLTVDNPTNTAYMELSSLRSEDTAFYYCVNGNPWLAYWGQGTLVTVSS VL: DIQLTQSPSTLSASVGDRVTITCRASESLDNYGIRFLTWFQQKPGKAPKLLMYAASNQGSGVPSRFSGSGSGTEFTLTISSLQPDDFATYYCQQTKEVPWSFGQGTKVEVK', 73.9),
  ('Refmab #2 (antibody, V domains shown, Full-length format is human IgG1 Fc silent (PG-LALA); The alanine scan used IgG or Fab) VH: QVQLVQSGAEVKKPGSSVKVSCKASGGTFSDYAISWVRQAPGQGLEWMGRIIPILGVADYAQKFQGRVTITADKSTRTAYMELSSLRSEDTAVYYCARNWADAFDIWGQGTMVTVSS VL: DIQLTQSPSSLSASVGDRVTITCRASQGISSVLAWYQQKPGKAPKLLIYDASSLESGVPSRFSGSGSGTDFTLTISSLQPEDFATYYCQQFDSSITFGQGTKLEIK', 104);

# next binder below
# input Could you share which Mean % WT Binding value was measured for Refmab #3 (antibody, V domains shown, Full-length format is human IgG1 Fc silent (PG-LALA); The alanine scan used IgG or Fab) VH: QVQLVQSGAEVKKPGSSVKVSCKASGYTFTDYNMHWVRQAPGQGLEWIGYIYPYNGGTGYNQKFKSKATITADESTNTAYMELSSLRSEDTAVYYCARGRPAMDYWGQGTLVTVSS VL: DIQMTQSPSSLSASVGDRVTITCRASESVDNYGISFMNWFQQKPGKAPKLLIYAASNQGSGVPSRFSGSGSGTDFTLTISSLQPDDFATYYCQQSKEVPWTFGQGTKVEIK ?
# output 138
